Reported absorption maximum is given for each of the following molecules.
Assay: solvent given as SMILES
Conditions: in ClCCl
Kindly provide the numeric value in nm only, without the unit symbol.

Example molecules with recorded absorption maximum:
COc1ccc(C#Cc2c3cc4ccccc4cc3c(C#C[Si](C(C)C)(C(C)C)C(C)C)c3cc4ccccc4cc23)cc1 = 655
O=C1Nc2ccccc2/C1=C/C(=O)c1ccc(Cl)cc1 = 338
COc1ccc(O)c(-c2[nH]c(=O)n3c2-c2ccccc2C3=O)c1 = 399
CCn1c2ccccc2c2c(N(c3ccccc3)c3ccccc3)cccc21 = 357

Which absorption maximum is listed for "Cc1cc(C)c(C)c(-c2cc(-c3c(C)c(C)cc(C)c3C)c3ccc4c(-c5c(C)c(C)cc(C)c5C)cc(-c5c(C)c(C)cc(C)c5C)c5ccc2c3c54)c1C" ?
364

Report absorption maximum for "COc1ccc(C#CC2=C3CCc4ccccc4C3=[O+][B-](F)(F)O2)cc1" please.
446

What value of absorption maximum has been reported for the following molecule? "Cc1nc(-c2cc(C(F)(F)F)ccc2O)n2c1CCCC2"
316

Record request: absorption maximum value, item "COc1ccc2c(=O)c3c([nH]c2c1)-c1cc(Cl)ccc1NC3(C)C"
408

Look up absorption maximum for this molecule: "C=CCNc1ccc2ccc3oc4cc(=O)ccc-4nc3c2c1"
539

# absorption maximum lookup, item O=P1(c2ccccc2)C(c2ccc(C(F)(F)F)cc2)=Cc2cc3ccccc3cc21 (centres undefined)
387
